experiment: Cytotoxicity against mouse J774.1 cells after 48 hrs; type: cell-based; conditions: read-out: ED50
reportedMetric: CC50 at 48 h (µM)
Report the figure in µM without appending any unit label.

COC(=O)C1C(=O)C(C(=O)OC)[C@H](c2cccc([N+](=O)[O-])c2)N(Cc2ccc(Cl)cc2)[C@@H]1c1cccc([N+](=O)[O-])c1 (stereo partly drawn)	46.6
COC(=O)C1C(=O)C(C(=O)OC)[C@H](c2ccccn2)N(CCCC(=O)O)[C@@H]1c1ccccn1 (stereo partly drawn)	46
Cl.Clc1cccc(Cl)c1CO/N=C/C1CCN(CCCc2ccccc2)CC1	28.4
COC(=O)C1C(=O)C(C(=O)OC)[C@H](c2ccccn2)N(CCCO)[C@@H]1c1ccccn1 (stereo partly drawn)	32
COC(=O)C1C(=O)C(C(=O)OC)[C@H](c2cccc([N+](=O)[O-])c2)N(Cc2ccc(C)cc2)[C@@H]1c1cccc([N+](=O)[O-])c1 (stereo partly drawn)	49.8

Task: Recorded CC50 at 48 h for CC[C@@H]1CC2(C[C@H](CC)N1)C(=O)N(CCc1ccccc1)C(=O)N2c1ccccc1 (stereo partly drawn) , please?
Result: 32.3

---

tested on: Leishmania major; assay: Antileishmanial activity against Leishmania major MHOM/IL/81/FE/BNI infected in BALB/c mouse; format: functional
reportedMetric: ED50

O/N=C/C1CCN(CCCc2ccccc2)CC1	>100 µM
COC(=O)C1C(=O)C(C(=O)OC)[C@H](c2cccc([N+](=O)[O-])c2)N(Cc2ccc(OC)cc2)[C@@H]1c1cccc([N+](=O)[O-])c1 (some centres undefined)	>100 µM
COC(=O)C1C(=O)C(C(=O)OC)[C@H](c2ccccn2)N(CCCCCCCC(=O)O)[C@@H]1c1ccccn1 (some centres undefined)	50.34 µM
C[C@@H]1CC2(C[C@H](C)N1)C(=O)N(CCO)C(=O)N2Cc1ccccc1 (some centres undefined)	>100 µM
COC(=O)C1C(=O)C(C(=O)OC)[C@H](c2ccccn2)N(CCOCCO)[C@@H]1c1ccccn1 (some centres undefined)	65.04 µM
CC[C@@H]1CC2(C[C@H](CC)N1Cc1ccccc1)C(=O)NC(=O)N2c1ccccc1 (some centres undefined)	>100 µM
CC[C@@H]1CC2(C[C@H](CC)N1Cc1ccccc1)C(=O)N(Cc1ccc([N+](=O)[O-])cc1)C(=O)N2c1ccccc1 (some centres undefined)	>100 µM
COC(=O)C1C(=O)C(C(=O)OC)[C@H](c2cccc([N+](=O)[O-])c2)N(Cc2ccc(Cl)cc2)[C@@H]1c1cccc([N+](=O)[O-])c1 (some centres undefined)	>100 µM

Task: # value lookup — system Leishmania major, readout ED50, item "Cl.Clc1cccc(Cl)c1CO/N=C/C1CCN(CCCc2ccccc2)CC1"
Result: 30.72 µM

---

experiment: Cytotoxicity against mouse J774.1 cells after 48 hrs; type: cell-based; conditions: read-out: ED50
reportedMetric: CC50 at 48 h

CCOC(=O)C1C(=O)C(C(=O)OCC)[C@H](c2ccc([N+](=O)[O-])cc2)N(Cc2ccccc2)[C@@H]1c1ccc([N+](=O)[O-])cc1 (stereo partly drawn)	> 100 µM
C=CCN1[C@@H](c2ccccn2)C(C(=O)OC)=C(O)C[C@H]1c1ccccn1	35 µM
CC[C@@H]1CC2(C[C@@H](CC)N1)C(=O)NC(=O)N2Cc1ccccc1 (stereo partly drawn)	> 100 µM
COC(=O)C1=C(O)C[C@H](c2ccccn2)N(Cc2ccc(OC)cc2)[C@@H]1c1ccccn1	29.9 µM
COC(=O)C1C(=O)C(C(=O)OC)[C@H](c2ccccn2)N(CCCCCCCC(=O)O)[C@@H]1c1ccccn1 (stereo partly drawn)	33.8 µM

Task: Recorded CC50 at 48 h for CCC[C@@H]1CC2(C[C@H](CCC)N1)C(=O)NC(=O)N2c1ccccc1 (stereo partly drawn) , please?
Result: 36 µM

Task: Recorded CC50 at 48 h for COC(=O)C1C(=O)C(C(=O)OC)[C@H](c2ccc([N+](=O)[O-])cc2)N(Cc2ccccc2)[C@@H]1c1ccc([N+](=O)[O-])cc1 (stereo partly drawn) , please?
Result: 18.4 µM

Task: Recorded CC50 at 48 h for "COC(=O)c1c(-c2ccccn2)n(Cc2ccc(Cl)cc2)c(-c2ccccn2)cc1=O" , please?
Result: > 100 µM

---

Measured CC50 at 48 h of individual entries
assay: Cytotoxicity against mouse J774.1 cells after 48 hrs; type: cell-based; conditions: read-out: ED50

Task: Recorded CC50 at 48 h for "COC(=O)C1=C(O)C[C@H](c2ccccn2)N(Cc2cccc(OC)c2)[C@@H]1c1ccccn1" , please?
Result: > 100 µM

Task: Recorded CC50 at 48 h for C=CCN1[C@H](c2ccc([N+](=O)[O-])cc2)C(C(=O)OC)C(=O)C(C(=O)OC)[C@@H]1c1ccc([N+](=O)[O-])cc1 (stereo partly drawn) , please?
Result: 50.3 µM

Task: Recorded CC50 at 48 h for C=CCN1[C@H](c2ccccn2)C(C(=O)OC)C(=O)C(C(=O)OC)[C@@H]1c1ccccn1 (stereo partly drawn) , please?
Result: > 100 µM

Task: Recorded CC50 at 48 h for C[C@@H]1CC2(C[C@H](C)N1)C(=O)NC(=O)N2c1ccccc1 (stereo partly drawn) , please?
Result: > 100 µM

Task: Recorded CC50 at 48 h for CC[C@@H]1CC2(C[C@H](CC)N1Cc1ccccc1)C(=O)N(Cc1ccc([N+](=O)[O-])cc1)C(=O)N2c1ccccc1 (stereo partly drawn) , please?
Result: > 100 µM

Task: Recorded CC50 at 48 h for CC[C@@H]1CC2(C[C@H](CC)N1Cc1ccccc1)C(=O)NC(=O)N2c1ccccc1 (stereo partly drawn) , please?
Result: > 100 µM

Task: Recorded CC50 at 48 h for COC(=O)C1C(=O)C(C(=O)OC)[C@H](c2ccccn2)N(CCOCCO)[C@@H]1c1ccccn1 (stereo partly drawn) , please?
Result: 38.5 µM

Task: Recorded CC50 at 48 h for COC(=O)C1C(=O)C(C(=O)OC)[C@H](c2ccccn2)N(Cc2ccccc2)[C@@H]1c1ccccn1 (stereo partly drawn) , please?
Result: 34 µM

Task: Recorded CC50 at 48 h for COC(=O)C1C(=O)C(C(=O)OC)[C@H](c2ccccn2)N(CCO)[C@@H]1c1ccccn1 (stereo partly drawn) , please?
Result: 31.2 µM

Task: Recorded CC50 at 48 h for "O/N=C/C1CCN(CCCc2ccccc2)CC1" , please?
Result: > 100 µM

Task: Recorded CC50 at 48 h for COC(=O)C1C(=O)[C@H](C(=O)OC)C(c2ccccn2)N[C@@H]1c1ccccn1 (stereo partly drawn) , please?
Result: > 100 µM

Task: Recorded CC50 at 48 h for CC[C@@H]1CC2(C[C@H](CC)N1)C(=O)N(CCCc1ccccc1)C(=O)N2c1ccccc1 (stereo partly drawn) , please?
Result: > 100 µM

Task: Recorded CC50 at 48 h for "COC(=O)C1=C(O)C[C@@H](c2ccccn2)N(Cc2ccccc2)[C@H]1c1ccccn1" , please?
Result: 33.2 µM

---

test system: Leishmania major; test: Antileishmanial activity against Leishmania major MHOM/IL/81/FE/BNI infected in BALB/c mouse; type: functional
reportedMetric: ED50

// known answers, use as guide
COC(=O)C1C(=O)[C@H](C(=O)OC)C(c2ccccn2)N[C@@H]1c1ccccn1 (stereo partly drawn)	>100 µM
COC(=O)C1C(=O)C(C(=O)OC)[C@H](c2ccccn2)N(Cc2ccccn2)[C@@H]1c1ccccn1 (stereo partly drawn)	>100 µM
C=CCN1[C@H](c2ccccn2)C(C(=O)OC)C(=O)C(C(=O)OC)[C@@H]1c1ccccn1 (stereo partly drawn)	>100 µM
COC(=O)C1C(=O)C(C(=O)OC)[C@H](c2ccccn2)N(CCCC(=O)O)[C@@H]1c1ccccn1 (stereo partly drawn)	>100 µM
CCCC[C@@H]1CC2(C[C@H](CCCC)N1)C(=O)NC(=O)N2c1ccccc1 (stereo partly drawn)	>100 µM

Task: Recorded ED50 for CC[C@@H]1CC2(C[C@@H](CC)N1)C(=O)NC(=O)N2Cc1ccccc1 (stereo partly drawn) , please?
Result: >100 µM

Task: Recorded ED50 for "COC(=O)c1c(-c2ccccn2)n(Cc2ccc(Cl)cc2)c(-c2ccccn2)cc1=O" , please?
Result: >100 µM

Task: Recorded ED50 for COC(=O)C1C(=O)C(C(=O)OC)[C@H](c2ccccn2)N(CCCO)[C@@H]1c1ccccn1 (stereo partly drawn) , please?
Result: >100 µM

---

tested on: Staphylococcus aureus; assay: Antibacterial activity against Staphylococcus aureus assessed as inhibition of biofilm formation; assay type: functional, organism-based
Activity calls are given as the source filed them. The calls are words filed in the database; no cut-off is given here.
reportedMetric: Activity

// known answers, use as guide
CCC[C@@H]1CC2(C[C@H](CCC)N1)C(=O)NC(=O)N2c1ccccc1 (stereo partly drawn)	inactive
COC(=O)c1c(-c2ccccn2)n(Cc2ccc(Cl)cc2)c(-c2ccccn2)cc1=O	inactive
CC[C@@H]1CC2(C[C@H](CC)N1Cc1ccccc1)C(=O)N(Cc1ccc([N+](=O)[O-])cc1)C(=O)N2c1ccccc1 (stereo partly drawn)	inactive
COC(=O)C1=C(O)C[C@H](c2ccccn2)N(Cc2ccc(OC)cc2)[C@@H]1c1ccccn1	inactive
CC[C@@H]1CC2(C[C@H](CC)N1)C(=O)N(CCc1ccccc1)C(=O)N2c1ccccc1 (stereo partly drawn)	inactive
COC(=O)c1c(-c2ccccn2)n(Cc2ccc(C)cc2)c(-c2ccccn2)cc1=O	inactive
COC(=O)C1C(=O)C(C(=O)OC)[C@H](c2ccccn2)N(Cc2ccccc2)[C@@H]1c1ccccn1 (stereo partly drawn)	inactive
C[C@@H]1CC2(C[C@H](C)N1)C(=O)NC(=O)N2c1ccccc1 (stereo partly drawn)	inactive
COC(=O)C1=C(O)C[C@@H](c2ccccn2)N(Cc2ccccc2)[C@H]1c1ccccn1	inactive
Clc1cccc(Cl)c1CON=C1CCN(CCCc2ccccc2)CC1	inactive

Task: Recorded Activity for COC(=O)C1C(=O)C(C(=O)OC)[C@H](c2ccccn2)N(CCCO)[C@@H]1c1ccccn1 (stereo partly drawn) , please?
Result: inactive

Task: Recorded Activity for "COC(=O)C1=C(O)C[C@H](c2ccccn2)N(Cc2cccc(OC)c2)[C@@H]1c1ccccn1" , please?
Result: inactive

Task: Recorded Activity for CCOC(=O)C1C(=O)C(C(=O)OCC)[C@H](c2ccc([N+](=O)[O-])cc2)N(Cc2ccccc2)[C@@H]1c1ccc([N+](=O)[O-])cc1 (stereo partly drawn) , please?
Result: inactive

Task: Recorded Activity for COC(=O)C1C(=O)C(C(=O)OC)[C@H](c2ccccn2)N(CCCC(=O)O)[C@@H]1c1ccccn1 (stereo partly drawn) , please?
Result: inactive

Task: Recorded Activity for C[C@@H]1CC2(C[C@H](C)N1)C(=O)N(Cc1ccc([N+](=O)[O-])cc1)C(=O)N2Cc1ccccc1 (stereo partly drawn) , please?
Result: inactive

Task: Recorded Activity for "C=CCN1[C@@H](c2ccccn2)C(C(=O)OC)=C(O)C[C@H]1c1ccccn1" , please?
Result: inactive

Task: Recorded Activity for C=CCN1[C@H](c2ccc([N+](=O)[O-])cc2)C(C(=O)OC)C(=O)C(C(=O)OC)[C@@H]1c1ccc([N+](=O)[O-])cc1 (stereo partly drawn) , please?
Result: inactive

Task: Recorded Activity for CC[C@@H]1CC2(C[C@@H](CC)N1)C(=O)NC(=O)N2Cc1ccccc1 (stereo partly drawn) , please?
Result: inactive
